# Tested on: Staphylococcus aureus
# Procedure summary: Antibacterial activity against Staphylococcus aureus (SAUR) 9218
# Type: functional
Measured property: MIC

Compound: NNC(=O)N(CCc1cccc(C(F)(F)F)c1)c1cccc2ccccc12
Measured property: MIC
Readout value: > 128 µg/mL
//
Compound: CC(=O)NO [ACETOHYDROXAMIC ACID]
Measured property: MIC
Readout value: > 128 µg/mL
//
Compound: O=C(Cc1ccc(-c2ccccc2)cc1)NO
Measured property: MIC
Readout value: > 128 µg/mL
//
Compound: O=C(NO)C(NCc1cccc(C(F)(F)F)c1)c1cccc2ccccc12 (centres undefined)
Measured property: MIC
Readout value: > 64 µg/mL
//
Compound: NNC(=O)C(NCc1cccc(C(F)(F)F)c1)c1cccc2ccccc12 (centres undefined)
Measured property: MIC
Readout value: 64 µg/mL
//
Compound: O=C(CS)N(CCc1cccc(C(F)(F)F)c1)c1cccc2ccccc12
Measured property: MIC
Readout value: > 128 µg/mL
//
Compound: COc1cccc(C(NCc2cccc(C(F)(F)F)c2)C(=O)NO)c1 (centres undefined)
Measured property: MIC
Readout value: > 128 µg/mL
//
Compound: O=C(CO)N(CCc1cccc(C(F)(F)F)c1)c1cccc2ccccc12
Measured property: MIC
Readout value: 32 µg/mL

Memo: O=C(NO)C(NCc1cccc(C(F)(F)F)c1)c1ccccc1F (centres undefined) , reported MIC: > 128 µg/mL
